# credit: PubChem BioAssay (NCATS)

- Assay Explanation: Cell Viability - LYMP2-011 (AID 969);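 also: cells exposed to compound for 24 hours; nearly all actives have a fitted effect of over 60% in size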
- Measurement Context: LYMP2-011 lymphoblastoid cells viability; series mostly up to 92.2 µM
Inconclusive results are not listed. Activity calls are given as the source filed them. Calls follow the shape of the dose curve; as a rule, active = well fitted cell-killing curve with a large enough effect; inconclusive = small, poorly fitted or top-dose-only effect; inactive = flat fitted curve, though single readings scatter.
Assign a class; possible classes are active, inactive

## Task Which outcome did this test record for the molecule CCOC(C)OCC ?
## Result inactive

## Task Which outcome did this test record for the molecule OCl ?
## Result inactive

## Task Which outcome did this test record for the molecule O=c1n(CC2CO2)c(=O)n(CC2CO2)c(=O)n1CC1CO1 (stereo not drawn) ?
## Result active

## Task Which outcome did this test record for the molecule Oc1ccc(/C=C/c2cc(O)cc(O)c2)cc1 ?
## Result inactive

## Task Which outcome did this test record for the molecule c1ccc2ccccc2c1 ?
## Result inactive

## Task Which outcome did this test record for the molecule Nc1ccc(N=Nc2ccccc2)c(N)n1 ?
## Result inactive

## Task Which outcome did this test record for the molecule Oc1cccc(O)c1O ?
## Result inactive

## Task Which outcome did this test record for the molecule CO ?
## Result inactive
